Assay Remarks: NCI Yeast Anticancer Drug Screen. Data for the rad50 strain (AID 155)
Test Settings: S. cerevisiae rad50 strain growth inhibition; at 50.0 µM
The panel holds about 79,000 compounds, 15% with a hit somewhere; the sample as a whole holds those more often. Active and inactive are the calls of the source. Rule as the data show it: active = growth inhibition above about 70%; inactive = the rest.
Select the matching outcome among YES for active, NO for inactive

Write down the call the test reported for this compound. Item: O=C(OC1COC(n2c(=O)oc3ccc(Cl)cc32)C(OC(=O)c2ccccc2)C1OC(=O)c1ccccc1)c1ccccc1 (configuration not stated)
NO

Answer briefly: the call reported for COc1cc(CCNC(=O)CC(C)C)ccc1OCc1ccccc1 in this assay.
NO

What is the recorded call for this compound in the test? Cc1cc2c(c(C(N)=O)c1C)-c1cccc(Cl)c1C2=O
NO

// param item: Cc1cc(-c2ccc(N=Nc3c(C)nn(-c4ccc(S(=O)(=O)O)cc4)c3O)c(C)c2)ccc1N=Nc1ccc(O)c(C(=O)O)c1 ; yields the recorded call
NO

I would be grateful if you could indicate the recorded call for CC(C)CC(NC(=O)CNC(=O)CNC(=O)OCc1ccccc1)C(=O)O (configuration not stated) .
NO

Test call, this compound: c1ccc(N/N=C2/CSCc3ccccc32)cc1
YES

Assay outcome for C/C=C/C=C/CC : what was it?
NO

Please indicate how the test categorized CCN(CC)CCSCCSCCN(CC)CC .
NO

Could you kindly confirm the outcome this assay logged for COc1cc2oc3cc(=O)cc4oc(-c5ccccc5)cc(c2c2c1CCC(c1ccccc1)O2)c43 (configuration not stated) ?
NO

GET /call?item= CCOc1ccc(N(O)C(C)=O)cc1 returns the recorded outcome of this test.
NO

Kindly provide the recorded test outcome for the following compound: CC(C)(C)c1ccc(N)cc1
NO

How was CCOc1ccc(C(=O)OC(C)C)cc1 classified in this test?
NO

Check the results log: what was the call for Nc1ccc(Br)c2ccccc12 ?
NO

Any idea what this test logged for [Cl][Sm]([Cl])[Cl] ?
NO

Per the assay record, what outcome was assigned to CCN(CC)CCC(CCN(CC)CC)(COC(=O)c1ccc([N+](=O)[O-])cc1)c1ccccc1 ?
NO

Hello, I am checking results. What call was entered for COc1ccc2nc3cccc([N+](=O)[O-])c3c(NCCC(=O)O)c2c1 ?
NO

For this compound, state the assay outcome: CC(=O)Nc1ccc(/C=N/Nc2ccccc2)cc1
YES

I'd appreciate the recorded outcome for CCCC(=O)OCCc1ccccc1 from this test.
NO

Assay outcome for Cc1ccc(C(=O)c2ccc(C)cc2)cc1 : what was it?
NO

Please state the recorded outcome for this compound: Cc1cc2cc(Cl)ccc2nc1C(=O)c1ccccc1
NO

Hey, what did the test say about COc1cc(C2c3cc4c(cc3OC(N3CCNCC3)C2C)OCO4)cc(OC)c1OC (configuration not stated) ?
NO

Could you please tell me the result logged for COC(CN(C)C(=S)Nc1cccc2ccccc12)OC in this assay?
NO

Could you check what this test reported for CC(=O)Nc1cccc(Oc2ccc(Cl)cc2[N+](=O)[O-])c1 ?
NO

Hi, do you know how Cc1c(Cl)ccc2c1NC(=O)C2(O)CC(=O)c1ccc(Cl)cc1Cl (configuration not stated) came out in this test?
NO

Assay result, entry CC1(C)CC(C)(C)[P+]1(C)c1ccccc1 — outcome?
NO

Kindly provide the recorded test outcome for the following compound: COc1ccc(N=C2C(=Nc3ccc(OC)cc3)N(c3ccccc3[N+](=O)[O-])C(=S)N2c2ccc(OC)cc2)cc1
NO

What outcome does the record of this test show for COc1cc(/C=C/C(=O)Oc2ccccc2)ccc1C(=O)O/C=C/c1ccccc1 ?
NO
